Origin of values: PubChem BioAssay AID624417

- Target system: Glucagon-like peptide 1 receptor (Homo sapiens)
- Protocol: qHTS of GLP-1 Receptor Inverse Agonists (Inhibition Mode); also: nearly all actives have a fitted effect of over 55% in size
- Condition description: HEK293 GLP-1R CRE-luciferase, luminescence, 24 h, GLP-1R form is constitutively active; series mostly up to 38.3 µM
In all, about 410,000 compounds went through this assay and about 6,400 (1.6%) were called active. Not shown: some 20% with an inconclusive outcome. Calls follow the shape of the dose curve; as a rule, active = well fitted inhibition curve with a large enough effect; inconclusive = small, poorly fitted or top-dose-only effect; inactive = no such curve, though single readings can be large or run the other way. The sample holds actives, similar compounds and a random draw of the others, so the mix is not that of the screen.
Labels: active, inactive

[[record]]
molecule = "COc1cc(OC)cc(C(=O)NC2CCN(C(=O)N3c4ccccc4Sc4ccccc43)CC2)c1"
label = "active"

[[record]]
molecule = "COC(=O)c1ccc(CN2C(=O)C(Cc3ccccc3)ON=C2c2ncccc2C)o1 (stereo not given)"
label = "inactive"

[[record]]
molecule = "Cc1nc(NC(=O)c2ccc3c(c2)OCCO3)ccc1Br"
label = "inactive"

[[record]]
molecule = "Cc1ccc(N(Cc2ccc(C(=O)Nc3ccccc3C(=O)NCc3ccco3)cc2)S(C)(=O)=O)cc1C"
label = "inactive"

[[record]]
molecule = "C[C@@H]1CN([C@@H](C)CO)C(=O)c2cc(NS(C)(=O)=O)ccc2O[C@@H](C)CCCCO[C@H]1CN(C)C(=O)Nc1ccc2c(c1)OCO2"
label = "inactive"

[[record]]
molecule = "COc1ccc(C2CC(c3ccc(C)cc3)Nc3ncnn32)cc1 (stereo not given)"
label = "inactive"

[[record]]
molecule = "COc1cccc(-c2nc3nc(C)cc(C)n3c2NC2CCCCC2)c1"
label = "inactive"

[[record]]
molecule = "COc1ccc(S(=O)(=O)N[C@@H]2C=C[C@@H](CC(=O)N3CCc4ccccc4C3)O[C@@H]2CO)cc1"
label = "inactive"

[[record]]
molecule = "OC(COc1ccc(F)cc1Cl)CN1CCc2ccccc2C1 (stereo not given)"
label = "active"

[[record]]
molecule = "CCOc1ccccc1C1CC(c2ccccc2)Nc2nc(N)nn21 (stereo not given)"
label = "inactive"

[[record]]
molecule = "Cc1ccc(OCC(O)CN2CCN(CC(O)COc3ccc(C)cc3Cl)CC2)c(Cl)c1 (stereo not given)"
label = "inactive"

[[record]]
molecule = "COc1ccccc1OCC(O)CN1CCOCC1 (stereo not given)"
label = "inactive"

[[record]]
molecule = "O=C(CCNC(=O)c1ccccc1Cl)NCc1ccco1"
label = "inactive"

[[record]]
molecule = "Nc1nc2c(ncn2[C@@H]2O[C@H](CNCc3ccc(OCCCN4CCOCC4)cc3)[C@@H](O)[C@H]2O)c(=O)[nH]1"
label = "inactive"

[[record]]
molecule = "CO[C@@H]1CN(C)C(=O)c2cc(NC(=O)Nc3cc(F)ccc3F)ccc2OC[C@H](C)N(C(=O)c2ccccn2)C[C@@H]1C"
label = "inactive"

[[record]]
molecule = "FC(F)Oc1ccccc1C1CC(c2ccc(Br)s2)Nc2ncnn21 (stereo not given)"
label = "active"

[[record]]
molecule = "COc1ccc(C)cc1N(CC(=O)N1CCC(C)CC1)S(=O)(=O)c1ccc(C)cc1"
label = "inactive"

[[record]]
molecule = "CCCOc1ccc(F)cc1-c1cc(C(=O)Nc2ccc(F)cc2)[nH]n1"
label = "inactive"

[[record]]
molecule = "C=C1C(=O)[C@]23C[C@H]1CCC2[C@@]1(C)C(C[C@@H]3O)[C@](C)(C(=O)O)CC[C@@H]1O (stereo not given in full)"
label = "inactive"

[[record]]
molecule = "CCc1nc2c(=O)[nH]cnc2o1"
label = "inactive"

